- Test system: VI829 L100I+K103N
- method: Antiviral activity, NNRTI-resistant virus L100I+K103N
- Assay type: cell-based, HIV-1
- experimental_conditions: VI829 L100I+K103N
quantity: FC (L100I+K103N)
Respond with the number and no other words.

As a guide, the following entries are already answered.
| molecule | FC (L100I+K103N) |
| --- | --- |
| Cc1cc(/C=C/C#N)cc(C)c1Nc1nc(N)nc(Nc2ccc(C#N)cc2)n1 | 5.2 |
| Cc1cc(C=CC#N)cc(C)c1Nc1nc(Nc2ccc(C#N)cc2)nc(NC(C)C)n1 | 43 |
| Cc1cc(/C=C/C#N)cc(C)c1Nc1ccnc(Nc2ccc(C#N)cc2)n1 [TMC278, Rilpivirine, reference compound] | 4 |
| Cc1cc(C)c(Nc2ccnc(Nc3ccc(C#N)cc3)n2)c(C)c1 [TMC120, reference compound] | 337 |
| Cc1cc(C=CC#N)cc(C)c1Oc1nc(N)nc(Nc2ccc(C#N)cc2)n1 | 27 |

Note: attention shifts to another entry.
Ask: I would be grateful if you could share the reported FC (L100I+K103N) for Cc1cc(C#N)cc(C)c1Oc1nc(Nc2ccc(C#N)cc2)nc(N)c1Br [TMC125, Etravirine, reference compound] .
Result: 9
